tested target: Delta-type opioid receptor (Rattus norvegicus)
test summary: Compound was evaluated for the binding affinity in comparison with [3H][p-Cl-Phe4]-DPDPE (delta opioid receptor selective ligand)
Catalogue of log10 of IC50 values
Would you kindly interpret these values as log10 of IC50 expressed in nM?

- smiles repr: "Cc1cc(O)ccc1C[C@@H](N)C(=O)N[C@H]1C(=O)NCC(=O)N[C@@H](Cc2ccccc2)C(=O)N[C@@H](C(=O)O)C(C)(C)SSC1(C)C"
  log10 of IC50: 3.05
- smiles repr: "C[C@@H](c1ccc(O)cc1)[C@H](N)C(=O)N[C@H]1C(=O)NCC(=O)N[C@@H](Cc2ccccc2)C(=O)N[C@@H](C(=O)O)C(C)(C)SSC1(C)C"
  log10 of IC50: 2.64
- smiles repr: "C[C@H](c1ccc(O)cc1)[C@@H](N)C(=O)N[C@H]1C(=O)NCC(=O)N[C@@H](Cc2ccccc2)C(=O)N[C@@H](C(=O)O)C(C)(C)SSC1(C)C"
  log10 of IC50: 2.63
- smiles repr: "C[C@@H](c1ccc(O)cc1)[C@@H](N)C(=O)N[C@H]1C(=O)NCC(=O)N[C@@H](Cc2ccccc2)C(=O)N[C@@H](C(=O)O)C(C)(C)SSC1(C)C"
  log10 of IC50: 4.30

As a next step, examine the molecule that follows.
Q: Name the recorded log10 of IC50 for C[C@H](c1ccc(O)cc1)[C@H](N)C(=O)N[C@H]1C(=O)NCC(=O)N[C@@H](Cc2ccccc2)C(=O)N[C@@H](C(=O)O)C(C)(C)SSC1(C)C .
Ans: 1.93

----------
tested target: Mu-type opioid receptor (Rattus norvegicus)
Sequence (P33535 whole entry): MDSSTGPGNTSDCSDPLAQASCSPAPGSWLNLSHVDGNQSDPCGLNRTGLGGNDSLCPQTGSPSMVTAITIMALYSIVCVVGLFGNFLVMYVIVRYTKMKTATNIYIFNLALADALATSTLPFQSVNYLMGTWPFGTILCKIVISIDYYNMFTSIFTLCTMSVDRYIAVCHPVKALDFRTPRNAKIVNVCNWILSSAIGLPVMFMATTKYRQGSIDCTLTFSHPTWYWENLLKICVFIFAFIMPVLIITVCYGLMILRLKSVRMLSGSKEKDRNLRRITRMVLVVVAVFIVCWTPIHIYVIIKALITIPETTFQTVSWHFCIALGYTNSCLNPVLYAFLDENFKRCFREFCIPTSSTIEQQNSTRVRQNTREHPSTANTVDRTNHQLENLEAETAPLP
test summary: Compound was evaluated for its ability to displace [3H]- CTOP (mu opioid receptor selective ligand)
property: IC50 (µM)
# output: bare number, implied unit µM

- smiles repr: "C[C@@H](c1ccc(O)cc1)[C@H](N)C(=O)N[C@H]1C(=O)NCC(=O)N[C@@H](Cc2ccccc2)C(=O)N[C@@H](C(=O)O)C(C)(C)SSC1(C)C"
  property: "IC50"
  recorded result: 18.6
- smiles repr: "Cc1cc(O)ccc1C[C@@H](N)C(=O)N[C@H]1C(=O)NCC(=O)N[C@@H](Cc2ccccc2)C(=O)N[C@@H](C(=O)O)C(C)(C)SSC1(C)C"
  property: "IC50"
  recorded result: 16.6

Q: GET /values?readout=IC50&system=Mu-type opioid receptor (Rattus norvegicus)&item= C[C@H](c1ccc(O)cc1)[C@@H](N)C(=O)N[C@H]1C(=O)NCC(=O)N[C@@H](Cc2ccccc2)C(=O)N[C@@H](C(=O)O)C(C)(C)SSC1(C)C
Ans: 22.8

----------
tested target: Delta-type opioid receptor (Mus musculus, UniProt P32300)
Sequence (P32300 whole entry): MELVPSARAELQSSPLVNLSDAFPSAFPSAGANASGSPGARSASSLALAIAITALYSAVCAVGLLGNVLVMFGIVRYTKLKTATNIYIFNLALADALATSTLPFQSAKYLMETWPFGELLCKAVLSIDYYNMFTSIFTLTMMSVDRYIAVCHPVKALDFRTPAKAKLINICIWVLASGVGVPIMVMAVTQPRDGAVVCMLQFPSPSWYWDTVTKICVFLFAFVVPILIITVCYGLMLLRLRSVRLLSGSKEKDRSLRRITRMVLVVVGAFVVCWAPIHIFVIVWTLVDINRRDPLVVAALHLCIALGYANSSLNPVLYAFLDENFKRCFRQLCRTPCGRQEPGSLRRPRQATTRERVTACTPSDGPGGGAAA
test summary: Compound was evaluated for […] at Opioid receptor delta 1
property: pIC50
The meaning of pIC50 here: minus log10 of the concentration in molar units.

Here are 3 molecules together with their reported answers.
- smiles repr: "C[C@H](c1ccc(O)cc1)[C@H](N)C(=O)N[C@H]1C(=O)NCC(=O)N[C@@H](Cc2ccccc2)C(=O)N[C@@H](C(=O)O)C(C)(C)SSC1(C)C"
  tested target: "Delta-type opioid receptor (Mus musculus, UniProt P32300)"
  pIC50: 7.84
- smiles repr: "Cc1cc(O)ccc1C[C@@H](N)C(=O)N[C@H]1C(=O)NCC(=O)N[C@@H](Cc2ccccc2)C(=O)N[C@@H](C(=O)O)C(C)(C)SSC1(C)C"
  tested target: "Delta-type opioid receptor (Mus musculus, UniProt P32300)"
  pIC50: 6.12
- smiles repr: "C[C@@H](c1ccc(O)cc1)[C@H](N)C(=O)N[C@H]1C(=O)NCC(=O)N[C@@H](Cc2ccccc2)C(=O)N[C@@H](C(=O)O)C(C)(C)SSC1(C)C"
  tested target: "Delta-type opioid receptor (Mus musculus, UniProt P32300)"
  pIC50: 6.61

Now consider a different molecule.
Q: Name the reported pIC50 value associated with the molecule C[C@@H](c1ccc(O)cc1)[C@@H](N)C(=O)N[C@H]1C(=O)NCC(=O)N[C@@H](Cc2ccccc2)C(=O)N[C@@H](C(=O)O)C(C)(C)SSC1(C)C
Ans: 6.16

----------
test summary: Macroscopic pKa value of the compound
Type: physicochemical
property: pKa
Kindly provide the number alone.

Q: Need pKa of CC1(C)SSC(C)(C)[C@@H](NC(=O)[C@@H](N)Cc2ccc(O)c(I)c2)C(=O)NCC(=O)N[C@@H](Cc2ccccc2)C(=O)N[C@H]1C(=O)O , thanks.
Ans: 8.2

Q: Return reported pKa; argument: CC1(C)SSC(C)(C)[C@@H](NC(=O)[C@@H](N)Cc2ccc(O)c([N+](=O)[O-])c2)C(=O)NCC(=O)N[C@@H](Cc2ccccc2)C(=O)N[C@H]1C(=O)O
Ans: 7.2

Q: Would you mind telling me what pKa value was observed for CC1(C)SSC(C)(C)[C@@H](NC(=O)[C@@H](N)Cc2ccc(O)c(N)c2)C(=O)NCC(=O)N[C@@H](Cc2ccccc2)C(=O)N[C@H]1C(=O)O ?
Ans: 10

Q: Entry COc1cc(C[C@H](N)C(=O)N[C@H]2C(=O)NCC(=O)N[C@@H](Cc3ccccc3)C(=O)N[C@@H](C(=O)O)C(C)(C)SSC2(C)C)ccc1O : reported pKa = ?
Ans: 9.7

----------
tested target: Delta-type opioid receptor (Mus musculus, UniProt P32300)
test summary: Compound was evaluated for its inhibitory potency against Opioid receptor delta 1 of Mouse vas deferens
Format: tissue-based
property: pIC50
Scale explanation: pIC50 corresponds to minus log10 of a concentration expressed in moles per litre.

Q: What measured pIC50 goes with C[C@H](c1ccc(O)cc1)[C@@H](N)C(=O)N[C@H]1C(=O)NCC(=O)N[C@@H](Cc2ccccc2)C(=O)N[C@@H](C(=O)O)C(C)(C)SSC1(C)C ?
Ans: 4.68

----------
Measured pIC50 by item
tested target: Delta-type opioid receptor (Mus musculus)
test summary: Compound was evaluated for its inhibitory potency against opioid receptor delta of Mouse vas deferens
Format: tissue-based
The meaning of pIC50 here: minus log10 of the concentration in molar units.

Here is how some compounds turned out for pIC50.
- compound: "Cc1cc(O)ccc1C[C@H](N)C(=O)N[C@H]1C(=O)NCC(=O)N[C@@H](Cc2ccccc2)C(=O)N[C@@H](C(=O)O)C(C)(C)SSC1(C)C"
  pIC50: 8.34
- compound: "CC1(C)SSC(C)(C)[C@@H](NC(=O)[C@]2(N)CCC3C=C(O)C=CC3C2)C(=O)NCC(=O)N[C@@H](Cc2ccccc2)C(=O)N[C@H]1C(=O)O (stereo in doubt; 9)"
  pIC50: 7.66

With those in mind, consider the next compound.
Q: Notebook entry, Delta-type opioid receptor (Mus musculus) assay: pIC50 of CC1(C)SSC(C)(C)[C@@H](NC(=O)[C@]2(N)CCC3C=C(O)C=CC3C2)C(=O)NCC(=O)N[C@@H](Cc2ccccc2)C(=O)N[C@H]1C(=O)O (stereo in doubt; 8) = ?
Ans: 6.86

----------
tested target: Delta-type opioid receptor (Rattus norvegicus, UniProt P33533)
Sequence (P33533 whole entry): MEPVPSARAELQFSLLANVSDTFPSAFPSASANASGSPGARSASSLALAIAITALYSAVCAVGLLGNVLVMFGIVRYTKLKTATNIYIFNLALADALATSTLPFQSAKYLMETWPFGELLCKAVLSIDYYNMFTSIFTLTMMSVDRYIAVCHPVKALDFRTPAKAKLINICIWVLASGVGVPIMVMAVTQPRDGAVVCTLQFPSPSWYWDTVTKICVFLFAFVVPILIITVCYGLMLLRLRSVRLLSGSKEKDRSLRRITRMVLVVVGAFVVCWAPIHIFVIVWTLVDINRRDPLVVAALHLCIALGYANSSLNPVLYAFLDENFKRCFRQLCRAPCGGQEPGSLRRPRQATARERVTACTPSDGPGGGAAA
test summary: Compound was evaluated for the binding affinity in comparison with [3H]- DPDPE (opioid receptor delta selective ligand)
property: IC50 (pM)
Give the quantity in pM, number only.

Q: I'm curious: which IC50 was measured for Cc1cc(O)ccc1C[C@H](N)C(=O)N[C@H]1C(=O)NCC(=O)N[C@@H](Cc2ccccc2)C(=O)N[C@@H](C(=O)O)C(C)(C)SSC1(C)C tested on Delta-type opioid receptor (Rattus norvegicus, UniProt P33533)?
Ans: 890

----------
Listed here: items and their measured pIC50.
tested target: Delta-type opioid receptor (Rattus norvegicus, UniProt P33533)
test summary: Compound was evaluated for the binding affinity in comparison with [3H][p-Cl-Phe4]-DPDPE (opioid receptor delta selective ligand)
Field pIC50 (float): negative decimal logarithm of the concentration in molar.

- molecule: "CC1(C)SSC(C)(C)[C@@H](NC(=O)[C@]2(N)CCC3C=C(O)C=CC3C2)C(=O)NCC(=O)N[C@@H](Cc2ccccc2)C(=O)N[C@H]1C(=O)O (stereo in doubt; 8)"
  pIC50: 7.61

// below: pIC50 requested for another molecule
Q: I'd like to know its pIC50. The molecule in question is CC1(C)SSC(C)(C)[C@@H](NC(=O)[C@]2(N)CCC3C=C(O)C=CC3C2)C(=O)NCC(=O)N[C@@H](Cc2ccccc2)C(=O)N[C@H]1C(=O)O (stereo in doubt; 9)
Ans: 8.63

Values were extracted from ChEMBL document CHEMBL1126091.
